# system-name: PDGFRβ (Homo sapiens (Human), UniProt P09619)
# Sequence (P09619 33-1106): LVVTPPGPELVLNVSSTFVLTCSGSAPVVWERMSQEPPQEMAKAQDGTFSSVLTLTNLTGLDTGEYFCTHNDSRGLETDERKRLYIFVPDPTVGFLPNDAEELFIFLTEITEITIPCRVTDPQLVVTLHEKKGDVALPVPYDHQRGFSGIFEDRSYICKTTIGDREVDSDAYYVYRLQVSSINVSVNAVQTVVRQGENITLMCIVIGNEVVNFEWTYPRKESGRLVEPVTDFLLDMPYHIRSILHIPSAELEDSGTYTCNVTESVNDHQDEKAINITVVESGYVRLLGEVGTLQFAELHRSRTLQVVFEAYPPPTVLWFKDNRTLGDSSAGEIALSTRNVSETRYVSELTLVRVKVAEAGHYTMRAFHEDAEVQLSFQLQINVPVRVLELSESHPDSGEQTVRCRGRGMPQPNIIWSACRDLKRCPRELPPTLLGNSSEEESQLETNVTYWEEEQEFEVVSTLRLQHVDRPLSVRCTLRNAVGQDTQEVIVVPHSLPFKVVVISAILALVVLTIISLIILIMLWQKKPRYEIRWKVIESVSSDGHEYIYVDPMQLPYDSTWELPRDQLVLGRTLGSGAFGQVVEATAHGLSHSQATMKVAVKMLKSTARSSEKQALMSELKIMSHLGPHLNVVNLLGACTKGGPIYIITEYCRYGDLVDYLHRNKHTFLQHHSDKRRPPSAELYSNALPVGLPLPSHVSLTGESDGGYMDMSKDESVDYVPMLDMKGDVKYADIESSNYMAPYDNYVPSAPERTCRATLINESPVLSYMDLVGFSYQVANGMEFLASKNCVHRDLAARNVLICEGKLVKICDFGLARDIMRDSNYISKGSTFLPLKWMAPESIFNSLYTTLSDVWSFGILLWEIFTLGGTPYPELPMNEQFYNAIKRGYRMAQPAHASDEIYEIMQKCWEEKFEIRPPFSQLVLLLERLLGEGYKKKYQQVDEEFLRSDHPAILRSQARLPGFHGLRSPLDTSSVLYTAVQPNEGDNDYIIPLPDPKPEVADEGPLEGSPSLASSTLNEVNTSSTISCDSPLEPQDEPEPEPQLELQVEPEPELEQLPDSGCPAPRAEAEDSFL
# procedure-text: PDGFRβ enzyme inhibition (ADP-Glo assay)
# Format: biochemical
# stated-conditions: mean, n = 2 (nintedanib n = 34)
Structures can show the parent of a compound that is named as a salt.
Each record is given true (1) if its reported Ki is strictly below 9 nM. Records at or above 9 nM are given false (0).

molecule	label
COC(=O)c1cc2c(cc1C)/C(=C(/Nc1ccc(C(=O)NCCN3CCNC(=O)C3)cc1)c1ccccc1)C(=O)N2 [Example 9]	true (1)
COC(=O)c1cc2c(cc1C)/C(=C(/Nc1ccc(C(=O)N3CCN(C)CC3)cc1)c1ccccc1)C(=O)N2 [Example 17]	false (0)
COCCN(C)CCNC(=O)c1ccc(N/C(=C2\C(=O)Nc3cc(C(=O)OC)c(C)cc32)c2ccccc2)cc1 [Example 35]	false (0)
COC(=O)c1cc2c(cc1C)/C(=C(/Nc1ccc(S(=O)(=O)N3CCN(CCO)CC3)cc1)c1ccccc1)C(=O)N2 [Example 26, formate]	false (0)
COC(=O)c1cc2c(cc1C)/C(=C(/Nc1ccc(C(=O)NCCN3CCCN(C(C)=O)CC3)cc1)c1ccccc1)C(=O)N2 [Example 34]	false (0)
COC(=O)c1cc2c(cc1C)/C(=C(/Nc1ccc(C(=O)N3CC[C@@H](CN(C)C)[C@H](O)C3)cc1)c1ccccc1)C(=O)N2 [Example 33]	true (1)
COC(=O)c1cc2c(cc1C)/C(=C(/Nc1ccc(C(=O)NCCCN3CCOCC3)cc1)c1ccccc1)C(=O)N2 [Example 29]	false (0)
